Source: patent US20250120967A1

Reported inhibition at 1 µM by item:
TESTED SYSTEM: UniProtKB P35916
Sequence (P35916 25-1363): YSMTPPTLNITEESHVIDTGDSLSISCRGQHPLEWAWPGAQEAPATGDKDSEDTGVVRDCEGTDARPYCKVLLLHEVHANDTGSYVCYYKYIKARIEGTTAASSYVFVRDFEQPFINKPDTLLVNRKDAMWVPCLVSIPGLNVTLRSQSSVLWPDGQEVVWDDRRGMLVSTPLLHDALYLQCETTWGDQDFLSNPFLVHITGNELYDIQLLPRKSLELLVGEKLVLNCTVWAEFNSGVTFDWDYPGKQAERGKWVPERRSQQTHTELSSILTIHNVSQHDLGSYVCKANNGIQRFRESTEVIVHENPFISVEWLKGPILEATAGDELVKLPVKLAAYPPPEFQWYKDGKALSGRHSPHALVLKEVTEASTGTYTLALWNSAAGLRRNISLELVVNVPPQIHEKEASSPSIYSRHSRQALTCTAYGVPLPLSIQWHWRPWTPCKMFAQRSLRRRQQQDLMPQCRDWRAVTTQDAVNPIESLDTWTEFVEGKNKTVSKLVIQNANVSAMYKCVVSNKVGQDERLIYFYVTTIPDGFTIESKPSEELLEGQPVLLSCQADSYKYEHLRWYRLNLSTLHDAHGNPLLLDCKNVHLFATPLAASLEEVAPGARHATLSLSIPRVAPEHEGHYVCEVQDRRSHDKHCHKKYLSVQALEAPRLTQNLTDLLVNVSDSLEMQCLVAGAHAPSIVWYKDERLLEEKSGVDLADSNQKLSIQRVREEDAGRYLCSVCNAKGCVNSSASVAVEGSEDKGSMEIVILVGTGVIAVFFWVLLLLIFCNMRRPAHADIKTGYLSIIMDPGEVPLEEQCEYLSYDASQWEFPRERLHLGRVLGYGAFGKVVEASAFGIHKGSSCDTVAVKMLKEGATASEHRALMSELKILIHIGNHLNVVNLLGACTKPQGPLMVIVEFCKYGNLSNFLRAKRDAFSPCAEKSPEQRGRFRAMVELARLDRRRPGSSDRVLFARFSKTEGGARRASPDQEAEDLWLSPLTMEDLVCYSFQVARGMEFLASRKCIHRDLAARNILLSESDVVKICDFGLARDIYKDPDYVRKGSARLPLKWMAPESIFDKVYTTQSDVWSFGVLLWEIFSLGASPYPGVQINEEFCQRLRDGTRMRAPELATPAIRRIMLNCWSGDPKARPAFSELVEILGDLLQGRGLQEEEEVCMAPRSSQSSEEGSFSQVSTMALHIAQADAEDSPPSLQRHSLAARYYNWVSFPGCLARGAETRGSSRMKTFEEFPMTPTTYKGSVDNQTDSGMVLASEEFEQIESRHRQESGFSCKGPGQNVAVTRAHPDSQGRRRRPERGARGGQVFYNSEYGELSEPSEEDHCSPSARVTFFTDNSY
EXPERIMENT DESCRIPTION: Tyrosine kinase inhibition assay
Format: biochemical
RECORDED CONDITIONS: single concentration 1.0 μM, read-out: percent inhibition
ENDPOINT NAME: inhibition at 1 µM (%)

COc1cc2nccc(Oc3ccc(NC(=O)C4(NC(=O)c5ccc(F)cc5)CC4)cc3F)c2cc1Oc1ccc(N)cc1F : 92
COc1cc2nccc(Oc3ccc(NC(=O)C4(NC(=O)c5ccc(F)cc5)CC4)cc3F)c2cc1OC : 79
COc1cc2nccc(Oc3ccc(NC(=O)C4(NC(=O)c5ccc(F)cc5)CC4)cc3F)c2cc1Oc1c(F)cc(N)cc1F : 92
COc1cc2nccc(Oc3ccc(NC(=O)C4(C(=O)Nc5ccc(F)cc5)CC4)cc3)c2cc1OC [Cabozantinib, reference compound] : 95
COc1cc2nccc(Oc3ccc(NC(=O)C4(C(=O)Nc5ccc(F)cc5)CC4)cc3F)c2cc1Oc1ccc(N)cc1F : 99

* * *

Reported inhibition at 1 µM by item:
TESTED SYSTEM: PIK3CG (p110 gamma) (Homo sapiens, UniProt P48736)
Sequence (P48736 whole entry): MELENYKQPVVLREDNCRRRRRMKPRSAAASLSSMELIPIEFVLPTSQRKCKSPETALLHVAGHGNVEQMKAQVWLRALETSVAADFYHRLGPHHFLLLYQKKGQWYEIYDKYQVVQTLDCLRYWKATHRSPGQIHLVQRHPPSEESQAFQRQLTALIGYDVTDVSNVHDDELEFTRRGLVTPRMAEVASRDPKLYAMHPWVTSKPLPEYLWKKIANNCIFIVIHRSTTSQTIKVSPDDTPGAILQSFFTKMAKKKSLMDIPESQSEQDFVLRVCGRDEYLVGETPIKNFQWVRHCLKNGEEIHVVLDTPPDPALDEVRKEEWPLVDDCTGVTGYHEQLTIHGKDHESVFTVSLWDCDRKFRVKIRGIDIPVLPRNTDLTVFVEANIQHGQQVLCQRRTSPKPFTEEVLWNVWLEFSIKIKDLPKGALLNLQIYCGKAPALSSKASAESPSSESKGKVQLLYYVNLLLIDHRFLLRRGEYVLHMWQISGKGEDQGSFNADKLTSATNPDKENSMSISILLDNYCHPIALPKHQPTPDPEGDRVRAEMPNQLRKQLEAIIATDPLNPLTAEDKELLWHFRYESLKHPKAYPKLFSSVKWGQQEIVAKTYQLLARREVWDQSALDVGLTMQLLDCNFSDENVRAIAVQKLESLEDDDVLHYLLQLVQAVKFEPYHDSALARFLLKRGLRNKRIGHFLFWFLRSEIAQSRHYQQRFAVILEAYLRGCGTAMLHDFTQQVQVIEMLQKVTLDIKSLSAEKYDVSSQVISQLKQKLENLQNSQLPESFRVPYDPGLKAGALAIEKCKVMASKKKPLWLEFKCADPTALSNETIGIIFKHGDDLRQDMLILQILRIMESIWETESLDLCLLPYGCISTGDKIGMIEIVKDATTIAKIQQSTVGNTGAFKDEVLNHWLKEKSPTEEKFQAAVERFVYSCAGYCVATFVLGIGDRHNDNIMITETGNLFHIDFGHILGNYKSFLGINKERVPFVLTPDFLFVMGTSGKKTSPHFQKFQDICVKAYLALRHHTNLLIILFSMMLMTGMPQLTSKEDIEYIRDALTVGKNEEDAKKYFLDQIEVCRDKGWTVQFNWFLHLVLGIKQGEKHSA
EXPERIMENT DESCRIPTION: Tyrosine kinase inhibition assay
Format: biochemical
RECORDED CONDITIONS: single concentration 1.0 μM, read-out: percent inhibition
ENDPOINT NAME: inhibition at 1 µM

COc1cc2nccc(Oc3ccc(NC(=O)C4(NC(=O)c5ccc(F)cc5)CC4)cc3F)c2cc1Oc1c(F)cc(N)cc1F [Cbo-14] : 6%
COc1cc2nccc(Oc3ccc(NC(=O)C4(NC(=O)c5ccc(F)cc5)CC4)cc3F)c2cc1OC [Cbo-02] : 4%
COc1cc2nccc(Oc3ccc(NC(=O)C4(C(=O)Nc5ccc(F)cc5)CC4)cc3F)c2cc1Oc1ccc(N)cc1F [Cbo-23] : -7%
COc1cc2nccc(Oc3ccc(NC(=O)C4(C(=O)Nc5ccc(F)cc5)CC4)cc3)c2cc1OC [Cabozantinib, reference compound] : 14%
COc1cc2nccc(Oc3ccc(NC(=O)C4(NC(=O)c5ccc(F)cc5)CC4)cc3F)c2cc1Oc1ccc(N)cc1F [Cbo-10] : 9%

* * *

Reported inhibition at 1 µM by item:
TESTED SYSTEM: EPHA1 (Homo sapiens, UniProt P21709)
Sequence (P21709 26-976): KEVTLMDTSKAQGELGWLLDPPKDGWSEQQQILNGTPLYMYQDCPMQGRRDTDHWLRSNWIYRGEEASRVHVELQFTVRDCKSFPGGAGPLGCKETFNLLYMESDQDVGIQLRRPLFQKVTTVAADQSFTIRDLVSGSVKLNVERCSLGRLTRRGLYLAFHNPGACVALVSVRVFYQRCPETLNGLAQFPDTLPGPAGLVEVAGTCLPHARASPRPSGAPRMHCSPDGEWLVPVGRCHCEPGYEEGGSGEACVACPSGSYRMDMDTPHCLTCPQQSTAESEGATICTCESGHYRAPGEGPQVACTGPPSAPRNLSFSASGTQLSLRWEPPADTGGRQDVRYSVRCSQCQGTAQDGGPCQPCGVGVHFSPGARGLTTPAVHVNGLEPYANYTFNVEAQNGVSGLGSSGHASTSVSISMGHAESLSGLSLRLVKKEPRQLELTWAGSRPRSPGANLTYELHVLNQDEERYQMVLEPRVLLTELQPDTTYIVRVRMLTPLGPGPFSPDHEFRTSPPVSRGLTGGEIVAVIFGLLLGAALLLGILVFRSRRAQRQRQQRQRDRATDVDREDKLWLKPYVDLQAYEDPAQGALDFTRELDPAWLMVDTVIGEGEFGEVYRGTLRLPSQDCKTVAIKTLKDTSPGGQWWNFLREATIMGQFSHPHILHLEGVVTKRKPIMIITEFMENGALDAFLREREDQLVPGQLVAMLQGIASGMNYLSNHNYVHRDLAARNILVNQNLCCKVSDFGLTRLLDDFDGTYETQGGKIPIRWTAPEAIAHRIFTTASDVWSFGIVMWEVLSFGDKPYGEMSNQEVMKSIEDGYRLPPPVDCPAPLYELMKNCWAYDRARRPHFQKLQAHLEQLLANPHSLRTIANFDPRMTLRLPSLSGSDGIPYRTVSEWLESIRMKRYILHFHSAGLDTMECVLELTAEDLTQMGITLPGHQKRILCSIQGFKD
EXPERIMENT DESCRIPTION: Tyrosine kinase inhibition assay
Format: biochemical
RECORDED CONDITIONS: single concentration 1.0 μM, read-out: percent inhibition
ENDPOINT NAME: inhibition at 1 µM (%)

COc1cc2nccc(Oc3ccc(NC(=O)C4(NC(=O)c5ccc(F)cc5)CC4)cc3F)c2cc1OC : 29
COc1cc2nccc(Oc3ccc(NC(=O)C4(C(=O)Nc5ccc(F)cc5)CC4)cc3F)c2cc1Oc1ccc(N)cc1F : 96
COc1cc2nccc(Oc3ccc(NC(=O)C4(C(=O)Nc5ccc(F)cc5)CC4)cc3)c2cc1OC [Cabozantinib, reference compound] : 74
COc1cc2nccc(Oc3ccc(NC(=O)C4(NC(=O)c5ccc(F)cc5)CC4)cc3F)c2cc1Oc1ccc(N)cc1F : 84
COc1cc2nccc(Oc3ccc(NC(=O)C4(NC(=O)c5ccc(F)cc5)CC4)cc3F)c2cc1Oc1c(F)cc(N)cc1F : 80

* * *

TESTED SYSTEM: INSR (Homo sapiens, UniProt P06213)
Sequence (P06213 28-1382): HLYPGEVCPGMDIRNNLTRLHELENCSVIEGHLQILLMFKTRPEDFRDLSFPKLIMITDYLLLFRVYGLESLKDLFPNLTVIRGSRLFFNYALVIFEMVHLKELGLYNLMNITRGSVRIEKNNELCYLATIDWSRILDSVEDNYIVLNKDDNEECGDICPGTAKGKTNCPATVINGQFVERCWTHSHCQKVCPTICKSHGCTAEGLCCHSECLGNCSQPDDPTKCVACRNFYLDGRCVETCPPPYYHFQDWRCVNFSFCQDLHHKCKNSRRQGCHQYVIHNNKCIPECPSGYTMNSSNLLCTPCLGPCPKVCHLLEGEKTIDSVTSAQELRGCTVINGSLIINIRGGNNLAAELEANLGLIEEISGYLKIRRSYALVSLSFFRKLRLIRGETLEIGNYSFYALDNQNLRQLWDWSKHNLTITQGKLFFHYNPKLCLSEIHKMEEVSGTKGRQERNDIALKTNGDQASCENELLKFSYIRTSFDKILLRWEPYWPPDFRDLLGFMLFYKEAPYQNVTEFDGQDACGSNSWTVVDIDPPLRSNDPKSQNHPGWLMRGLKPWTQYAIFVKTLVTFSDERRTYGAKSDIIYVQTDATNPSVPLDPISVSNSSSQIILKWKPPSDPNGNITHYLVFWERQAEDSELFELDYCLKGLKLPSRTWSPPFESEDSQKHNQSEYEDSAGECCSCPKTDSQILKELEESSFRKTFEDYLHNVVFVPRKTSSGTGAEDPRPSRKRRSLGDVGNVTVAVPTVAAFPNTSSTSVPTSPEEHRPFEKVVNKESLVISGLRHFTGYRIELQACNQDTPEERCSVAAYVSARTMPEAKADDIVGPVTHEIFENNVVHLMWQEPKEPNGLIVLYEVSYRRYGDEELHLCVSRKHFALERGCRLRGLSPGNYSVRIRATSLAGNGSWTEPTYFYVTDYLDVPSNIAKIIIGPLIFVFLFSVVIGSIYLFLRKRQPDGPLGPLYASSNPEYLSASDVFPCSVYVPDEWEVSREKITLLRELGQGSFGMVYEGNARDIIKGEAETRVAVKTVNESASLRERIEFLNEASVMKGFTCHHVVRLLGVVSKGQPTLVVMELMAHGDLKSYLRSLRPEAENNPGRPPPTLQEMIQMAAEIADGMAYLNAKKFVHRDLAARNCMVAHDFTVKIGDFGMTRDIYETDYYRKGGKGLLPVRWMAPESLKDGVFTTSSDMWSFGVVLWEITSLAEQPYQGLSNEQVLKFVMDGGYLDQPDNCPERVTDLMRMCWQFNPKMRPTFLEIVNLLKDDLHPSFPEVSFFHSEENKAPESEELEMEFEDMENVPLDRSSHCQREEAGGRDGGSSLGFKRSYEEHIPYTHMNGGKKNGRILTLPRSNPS
EXPERIMENT DESCRIPTION: Tyrosine kinase inhibition assay
Format: biochemical
RECORDED CONDITIONS: single concentration 1.0 μM, read-out: percent inhibition
Label YES when inhibition at 1 µM >= 30%; otherwise NO.

COc1cc2nccc(Oc3ccc(NC(=O)C4(C(=O)Nc5ccc(F)cc5)CC4)cc3)c2cc1OC [Cabozantinib, reference compound] : NO
COc1cc2nccc(Oc3ccc(NC(=O)C4(NC(=O)c5ccc(F)cc5)CC4)cc3F)c2cc1Oc1c(F)cc(N)cc1F : YES
COc1cc2nccc(Oc3ccc(NC(=O)C4(NC(=O)c5ccc(F)cc5)CC4)cc3F)c2cc1Oc1ccc(N)cc1F : YES
COc1cc2nccc(Oc3ccc(NC(=O)C4(C(=O)Nc5ccc(F)cc5)CC4)cc3F)c2cc1Oc1ccc(N)cc1F : YES
